Field: koff. Provide a value for each of the binders that follow.
Molecular target: T1, human CD33 extracellular domain (human, UniProt P20138 18-259)
T1 construct: soluble monomeric ECD; also called human CD33 ECD; hCD33
Test: SPR, Fab captured, 37C;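 note: fabs captured on an anti-Fab surface, soluble monomeric CD33 ECD flowed over at several concentrations, double-referenced curves fit to a 1:1 binding model, KD taken as koff/kon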
Give bare numbers, in s⁻¹.

In the examples that follow, each entry is paired with its recorded koff.
• ADI-11839 Fab (Fab, V domains shown, Fab fragment; also called Ab28) VH: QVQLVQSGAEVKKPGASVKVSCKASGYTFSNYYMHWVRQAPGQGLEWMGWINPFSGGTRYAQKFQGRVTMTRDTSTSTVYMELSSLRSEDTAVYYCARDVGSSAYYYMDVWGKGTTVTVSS VL: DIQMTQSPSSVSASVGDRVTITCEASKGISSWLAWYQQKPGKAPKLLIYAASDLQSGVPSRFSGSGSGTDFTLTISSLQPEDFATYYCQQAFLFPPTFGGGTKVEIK = 0.0162
• ADI-11812 Fab (Fab, V domains shown, Fab fragment; also called Ab24) VH: QVQLVQSGAEVKKPGASVKVSCKASGYTFEIYYMHWVRQAPGQGLEWMGIINPSSGSTVYAQKFQGRVTMTRDTSTSTVYMELSSLRSEDTAVYYCARGAGYDDEDMDVWGKGTTVTVSS VL: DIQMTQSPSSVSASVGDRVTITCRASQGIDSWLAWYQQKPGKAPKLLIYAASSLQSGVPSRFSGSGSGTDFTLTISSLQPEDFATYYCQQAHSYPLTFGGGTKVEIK = 0.000486

Read the next record carefully.
So for ADI-11828 Fab (Fab, V domains shown, Fab fragment; also called Ab27) VH: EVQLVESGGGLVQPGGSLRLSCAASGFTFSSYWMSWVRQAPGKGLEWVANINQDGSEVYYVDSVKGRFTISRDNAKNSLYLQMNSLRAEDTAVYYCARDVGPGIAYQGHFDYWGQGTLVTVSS VL: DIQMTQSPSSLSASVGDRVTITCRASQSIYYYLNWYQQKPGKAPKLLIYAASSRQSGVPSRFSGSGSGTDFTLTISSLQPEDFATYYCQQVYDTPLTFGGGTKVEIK , the logged koff turned out to be 0.00351

Origin of the recorded values: patent US20220380459A1
